So I've got a bunch of compounds here, and I need their Kd values.
Field: numeric (µM). Do not append units.

The compound `C[C@H]1[C@H](N2CCS(=O)(=O)CC2)O[C@@H]2O[C@@]3(C)CC[C@H]4[C@H](C)CC[C@@H]1[C@@]24OO3` , tested on ACE2 (Homo sapiens, UniProt Q9BYF1), showed Kd of 681

Summary line: `CCN(CC)Cc1cc(Nc2ccnc3cc(Cl)ccc23)ccc1O` , ACE2 (Homo sapiens, UniProt Q9BYF1), reported Kd = 31.3

Given the compound C[C@H]1[C@H](N2CCSCC2)O[C@@H]2O[C@@]3(C)CC[C@H]4[C@H](C)CC[C@@H]1[C@@]24OO3 [Artemiside] and test system ACE2 (Homo sapiens, UniProt Q9BYF1), the measured Kd is 124

Origin of the recorded values: paper PMC8537658
